These measurements were taken from the NIST ThermoML archive (doi:10.1021/je700670k).

Overview of reported mass density across a group of molecules:
Details: 333.15 K; 30000 kPa; Liquid; Vibrating tube method
Please respond with the number in kg/m3 and leave the unit unwritten.

CCC[n+]1cccc(C)c1.O=S(=O)([N-]S(=O)(=O)C(F)(F)F)C(F)(F)F | 1437.4
CCC[N+]1(C)CCCCC1.O=S(=O)([N-]S(=O)(=O)C(F)(F)F)C(F)(F)F | 1399.5
CCC[N+]1(C)CCCC1.O=S(=O)([N-]S(=O)(=O)C(F)(F)F)C(F)(F)F | 1421.9
CCCC[N+]1(C)CCCC1.O=S(=O)([N-]S(=O)(=O)C(F)(F)F)C(F)(F)F | 1393.1

Moving on to the next molecule.
Please give the measured mass density for this molecule: CCn1cc[n+](C)c1.O=S(=O)([O-])C(F)(F)F [1-ethyl-3-methylimidazolium trifluoromethanesulfonate] 1361.4

###

Measured mass density accompanies every entry in the list below.
Settings: 303.15 K; 5000 kPa; Liquid; Vibrating tube method
Field: numeric (kg/m3). Do not append units.

See these solved cases before continuing.
CCCC[N+]1(C)CCCC1.O=S(=O)([N-]S(=O)(=O)C(F)(F)F)C(F)(F)F | 1402.9
CCC[n+]1cccc(C)c1.O=S(=O)([N-]S(=O)(=O)C(F)(F)F)C(F)(F)F | 1448.4
CCC[N+]1(C)CCCCC1.O=S(=O)([N-]S(=O)(=O)C(F)(F)F)C(F)(F)F | 1410.7
CCC[N+]1(C)CCCC1.O=S(=O)([N-]S(=O)(=O)C(F)(F)F)C(F)(F)F | 1432.2

Request the reported mass density associated with CCn1cc[n+](C)c1.O=S(=O)([O-])C(F)(F)F [1-ethyl-3-methylimidazolium trifluoromethanesulfonate] 1373.2

###

Details: 393.15 K; 7500 kPa; Liquid; Vibrating tube method
metric-name: mass density (kg/m3)
Express it in kg/m3; write the number only.

CCCC[N+]1(C)CCCC1.O=S(=O)([N-]S(=O)(=O)C(F)(F)F)C(F)(F)F | 1322.5
CCn1cc[n+](C)c1.O=S(=O)([O-])C(F)(F)F [1-ethyl-3-methylimidazolium trifluoromethanesulfonate] | 1296.4
CCC[N+]1(C)CCCCC1.O=S(=O)([N-]S(=O)(=O)C(F)(F)F)C(F)(F)F | 1329.7

Quick one: mass density of CCC[N+]1(C)CCCC1.O=S(=O)([N-]S(=O)(=O)C(F)(F)F)C(F)(F)F ? 1350.2

// same read-out, input: CCC[n+]1cccc(C)c1.O=S(=O)([N-]S(=O)(=O)C(F)(F)F)C(F)(F)F 1362.5

###

Settings: 333.15 K; 20000 kPa; Liquid; Vibrating tube method
Reported mass density is given for each of the following compounds.
Reply numerically in kg/m3, unit not repeated.

# input compound: CCC[N+]1(C)CCCC1.O=S(=O)([N-]S(=O)(=O)C(F)(F)F)C(F)(F)F ; wanted: its mass density 1414.6

###

Settings: 393.15 K; 100 kPa; Liquid; Vibrating tube method
metric-name: mass density (kg/m3)
Numbers only here, please. The scale is kg/m3.

# example entries with known answers
CCCC[N+]1(C)CCCC1.O=S(=O)([N-]S(=O)(=O)C(F)(F)F)C(F)(F)F | 1315.2
CCC[n+]1cccc(C)c1.O=S(=O)([N-]S(=O)(=O)C(F)(F)F)C(F)(F)F | 1354.8

Quick one: mass density of CCC[N+]1(C)CCCCC1.O=S(=O)([N-]S(=O)(=O)C(F)(F)F)C(F)(F)F ? 1322.3

Try CCC[N+]1(C)CCCC1.O=S(=O)([N-]S(=O)(=O)C(F)(F)F)C(F)(F)F next. 1343.2

Next up: CCn1cc[n+](C)c1.O=S(=O)([O-])C(F)(F)F [1-ethyl-3-methylimidazolium trifluoromethanesulfonate] 1291.1
